Measured on: T1, EsCas13d, nuclease-dead (Eubacterium siraeum, UniProt B0MS50, R295A;H300A;R849A;H854A)
T1 sequence: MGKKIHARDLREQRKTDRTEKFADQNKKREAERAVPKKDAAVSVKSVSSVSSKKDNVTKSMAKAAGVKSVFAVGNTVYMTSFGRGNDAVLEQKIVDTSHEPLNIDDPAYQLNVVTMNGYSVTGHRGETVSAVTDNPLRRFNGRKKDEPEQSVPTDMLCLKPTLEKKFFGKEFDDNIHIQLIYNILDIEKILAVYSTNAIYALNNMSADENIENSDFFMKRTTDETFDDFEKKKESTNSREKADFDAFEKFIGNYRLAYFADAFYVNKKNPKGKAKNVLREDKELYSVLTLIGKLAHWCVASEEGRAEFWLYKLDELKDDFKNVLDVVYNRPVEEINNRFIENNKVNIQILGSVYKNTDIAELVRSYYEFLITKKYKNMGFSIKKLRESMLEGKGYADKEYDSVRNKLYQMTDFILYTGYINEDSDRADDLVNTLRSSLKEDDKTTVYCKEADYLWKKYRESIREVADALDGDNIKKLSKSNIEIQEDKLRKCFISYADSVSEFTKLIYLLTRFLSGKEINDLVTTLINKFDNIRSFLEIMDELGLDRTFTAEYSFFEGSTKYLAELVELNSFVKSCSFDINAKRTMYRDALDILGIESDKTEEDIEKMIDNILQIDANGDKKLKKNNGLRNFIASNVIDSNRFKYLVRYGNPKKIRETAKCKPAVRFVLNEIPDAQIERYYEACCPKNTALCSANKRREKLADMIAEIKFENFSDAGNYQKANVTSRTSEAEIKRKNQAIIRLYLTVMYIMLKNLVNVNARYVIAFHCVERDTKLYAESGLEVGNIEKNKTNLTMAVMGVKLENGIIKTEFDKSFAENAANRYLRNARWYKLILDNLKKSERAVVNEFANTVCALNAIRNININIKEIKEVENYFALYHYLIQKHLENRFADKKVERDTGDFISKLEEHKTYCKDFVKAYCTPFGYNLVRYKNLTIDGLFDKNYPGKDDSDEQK
Protocol details: crRNA (strand 1, pre-loaded); Mg2+; 40 mM Tris-HCl pH 7.5, 150 mM NaCl, 6 mM MgCl2, 1 mM DTT, 0.1% Tween-20, 0.2 mg/ml BSA; 25 C; 10 min per concentration, then washed
Experimental conditions: tags: His6-TwinStrep-SUMO cleaved; N-terminal SNAP kept (SNAP-Surface 488); label: 3' end held by stalled T7 RNA polymerase
pKd: −log10 of the molar value.
Reported property: pKd

[[record]]
binder = "target 1 U3C,A9C (mixed) RNA 1: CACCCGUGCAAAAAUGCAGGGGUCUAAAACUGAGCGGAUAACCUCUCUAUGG RNA 2: GGGAAUGGAUCCACAUCUACGAAUUCGUACCAUAGAGAGGUUCUCCGCCCACCGAGAUCGGAAGAGCACACGU"
experimental_result = 7.55

[[record]]
binder = "target 2 MT 5'PFS UAG 3'PFS AAC (mixed) RNA 1: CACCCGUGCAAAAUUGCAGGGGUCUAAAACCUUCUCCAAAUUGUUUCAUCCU RNA 2: GGGAAUGGAUCCACAUCUACGAAUUCUAGAGGAUGAAACAAUUUGGAGAAGAACAGAUCGGAAGAGCACACGU"
experimental_result = 8.44

[[record]]
binder = "target 1 U3G,U8C (mixed) RNA 1: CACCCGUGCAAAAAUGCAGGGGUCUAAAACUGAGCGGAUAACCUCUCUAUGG RNA 2: GGGAAUGGAUCCACAUCUACGAAUUCGUACCAUAGAGAGGUUACCCGCGCACCGAGAUCGGAAGAGCACACGU"
experimental_result = 8.14

[[record]]
binder = "target 1 insU 3' of 22,insG 3' of 6 (mixed) RNA 1: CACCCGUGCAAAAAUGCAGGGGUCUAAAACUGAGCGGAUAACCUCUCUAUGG RNA 2: GGGAAUGGAUCCACAUCUACGAAUUCGUACUCAUAGAGAGGUUAUCCGGCUCACCGAGAUCGGAAGAGCACACGU"
experimental_result = 7.47

